- Assayed system: T1, recombinant hCTLA-4-mFc (human CTLA-4 extracellular domain with a C-terminal Fc portion of mouse IgG2a) (human)
- T1 construct: also called dimeric CTLA-4 protein
- T1 sequence (chain, as listed by the source limits assumed): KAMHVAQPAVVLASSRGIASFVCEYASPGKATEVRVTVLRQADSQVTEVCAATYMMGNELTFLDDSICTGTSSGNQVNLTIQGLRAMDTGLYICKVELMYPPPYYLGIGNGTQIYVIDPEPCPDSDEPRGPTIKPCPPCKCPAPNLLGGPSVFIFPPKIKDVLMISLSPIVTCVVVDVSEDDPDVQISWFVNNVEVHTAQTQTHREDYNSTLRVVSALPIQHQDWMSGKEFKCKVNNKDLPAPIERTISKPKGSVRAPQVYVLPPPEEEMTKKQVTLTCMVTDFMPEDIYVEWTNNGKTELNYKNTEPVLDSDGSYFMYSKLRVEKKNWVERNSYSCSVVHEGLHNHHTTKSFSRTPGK
- Experiment notes: competition ELISA, 400 pM hCTLA-4-mFc on plate-coated hB7-2-hIgG1-6His
Measured quantity: % Blockade (%)

1) H1H20373N (antibody, human IgG1, V domains shown, here with human IgG1 Fc (H1H)) VH: EVQLLESGGGLVQPGGSLRLSCAASGFTFSSYAMSWVRQAPGKGLEWVSDISGSGLSTYYADSVKGRFAISRDNSKNMLYLQMNRLRAEDTAVYYCAKEPSHWNGEAFDIWGQGTMVTVSS VL: DIQMTQSPSSVSASVGDRVTITCRASQDISSWLAWYQQKPGKAPKLLIYTTANLQSGVPSRFSGSGSGTDFTLTISSLQSEDFATYYCQQANSFPFTFGSGTKVDIK : 91
2) H1H19284P (antibody, human IgG1, V domains shown) VH: EVQLVESGGGLVQPGGSLRLSCAASGFTLSNYVMTWVRQAPGKGLEWVSAISGRGGNSYYADSVKGRFSISRDHSKNTLYLQVNSLRAEDTAVYYCAKAERGYSYGFNWFDPWGQGTLVTVSS VL: DIQMTQSPSSVSASAGDRVTITCRASQGISSWLAWYQQKPGKAPKLLIYAASSLQSGVPSRFSGSGSGTDFTLTISSLQPEDFASYYCQQGNNFPLTFGGGTKVEIK : 99
3) H1H19281P (antibody, human IgG1, V domains shown) VH: QVQLVESGGGVVQPGRSLRLSCAASGLTFSYYGMHWVRQAPGKGLEWVAVISYDGSNKYYADSVKGRFTISRDNSKNTLYLQMNSLRAEDAAVYYCAKDLGGDDYYGMDVWGQGTTVTVSS VL: EIVLTQSPGTLSLSPGERATLSCRASQSVSRTYLAWYQQKPGQAPRLLIYGAFSRATGIPDRFSGSGSGTDFTLTISRLEPEDFAVYYCQQYGSSPYTFGQGTKLEIK : 100
4) H1H19273P (antibody, human IgG1, V domains shown) VH: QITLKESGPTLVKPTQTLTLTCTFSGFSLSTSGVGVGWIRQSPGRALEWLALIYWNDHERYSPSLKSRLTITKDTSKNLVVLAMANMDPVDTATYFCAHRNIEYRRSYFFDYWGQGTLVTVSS VL: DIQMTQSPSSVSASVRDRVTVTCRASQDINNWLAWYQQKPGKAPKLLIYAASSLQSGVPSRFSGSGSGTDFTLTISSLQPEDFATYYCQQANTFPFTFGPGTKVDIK : 98

The values you see were collected from patent US20210040232A1.
